assay-remarks: Cytotoxicity against human L02 cells assessed as cell viability incubated for 48 hrs by MTT assay
Assay type: toxicity, cell-based
Consider the following compounds and their measured log10(IC50 at 48 h) readings.
Scale: log10; quantity: IC50 at 48 h; unit before log: µM

| test-smiles | log10(IC50 at 48 h) |
| --- | --- |
| COc1cc(-c2nc3cc(N4CCOCC4)c(C#Cc4ccc(Cl)cc4)cc3[nH]2)cc(OC)c1OC | 1.11 |

Would you kindly share the measured log10(IC50 at 48 h) for COc1cc(OC)c(-c2nc3cc(N4CCN(C)CC4)c(C#Cc4ccc(Cl)cc4)cc3[nH]2)cc1OC ?
0.14

# log10(IC50 at 48 h) lookup, item COc1cc(-c2nc3cc(N4CCN(C)CC4)c(C#Cc4ccccc4F)cc3[nH]2)cc(OC)c1OC
1.32

Entry COc1cc(-c2nc3cc(N4CCN(C)CC4)c(C#Cc4ccccc4Cl)cc3[nH]2)cc(OC)c1OC : reported log10(IC50 at 48 h) = ?
0.11

log10(IC50 at 48 h) lookup needed for COc1cc(-c2nc3cc(N4CCN(C)CC4)c(C#Cc4ccc(Cl)cc4)cc3[nH]2)cc(OC)c1OC , thanks.
0.32

Recorded log10(IC50 at 48 h) of COc1cc(OC)c(-c2nc3cc(N4CCOCC4)c(C#Cc4ccccc4F)cc3[nH]2)cc1OC , please.
0.96

Dear colleague, I am looking for the recorded log10(IC50 at 48 h) of the following compound: COc1ccc(C#Cc2cc3[nH]c(-c4cc(OC)c(OC)c(OC)c4)nc3cc2N2CCOCC2)cc1
0.95

---

assay-remarks: Cytotoxicity against human HEK293T cells assessed as cell viability incubated for 48 hrs by MTT assay
Type: toxicity, cell-based, HEK-293T
Field: label. Allowed values: 1 (yes) (IC50 at 48 h < 4 µM) or 0 (no) (IC50 at 48 h >= 4 µM).

| test-smiles | label |
| --- | --- |
| COc1cc(OC)c(-c2nc3cc(N4CCOCC4)c(C#Cc4ccc(C(F)(F)F)cc4)cc3[nH]2)cc1OC | 0 (no) |
| COc1cc(-c2nc3cc(N4CCOCC4)c(C#Cc4ccc(Cl)cc4)cc3[nH]2)cc(OC)c1OC | 0 (no) |
| COc1cc(-c2nc3cc(N4CCN(C)CC4)c(C#Cc4ccccc4F)cc3[nH]2)cc(OC)c1OC | 0 (no) |

# check: IC50 at 48 h < 4 µM for COc1cc(-c2nc3cc(N4CCN(C)CC4)c(C#Cc4ccc(Cl)cc4)cc3[nH]2)cc(OC)c1OC
0 (no)

Regarding COc1cc(-c2nc3cc(N4CCOCC4)c(/C=C/C(=O)N(C)C)cc3[nH]2)cc(OC)c1OC , kindly confirm whether its IC50 at 48 h is beneath 4 µM.
1 (yes)

---

assay-remarks: Acute toxicity in AB-wild type zebrafish embryo assessed as mortalities at 12.5 uM measured after 96 hrs
Parameters: species or system Danio rerio
conditions: in vivo, read-out: Activity
reported-endpoint: mortality at 96 h, 12.5 µM
Returns: string containing the number followed by the unit.

Reported mortality at 96 h, 12.5 µM, compound COc1cc(-c2nc3cc(N4CCN(C)CC4)c(C#Cc4ccccc4F)cc3[nH]2)cc(OC)c1OC : ____
0%
